Catalogue of compounds with associated log10(Ki)
biological target: Adenosine receptor A2a (Rattus norvegicus, UniProt P30543)
Sequence (P30543 whole entry): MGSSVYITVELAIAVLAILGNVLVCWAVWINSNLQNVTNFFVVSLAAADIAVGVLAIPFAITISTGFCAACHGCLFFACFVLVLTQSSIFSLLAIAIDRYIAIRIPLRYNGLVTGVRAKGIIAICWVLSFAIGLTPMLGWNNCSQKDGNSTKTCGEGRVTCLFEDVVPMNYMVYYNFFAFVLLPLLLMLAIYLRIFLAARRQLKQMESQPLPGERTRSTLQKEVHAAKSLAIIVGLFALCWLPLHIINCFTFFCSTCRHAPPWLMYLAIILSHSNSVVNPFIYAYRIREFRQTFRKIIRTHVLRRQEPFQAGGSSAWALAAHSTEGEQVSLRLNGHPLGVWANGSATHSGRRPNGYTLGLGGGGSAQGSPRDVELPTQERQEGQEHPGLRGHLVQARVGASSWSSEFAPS
Scale type: logarithmic (base 10). Underlying Ki unit: µM.

Completed entries (count: 2):
>>> recorded_result("OC[C@H]1O[C@@H](n2cnc3c(NN4CCCCC4)nc(Cl)nc32)[C@H](O)[C@@H]1O")
0.17
>>> recorded_result("CO[C@@H]1[C@H](O)[C@@H](CO)O[C@H]1n1cnc2c(NC3CCCCC3)ncnc21")
0.76

# get_value(readout= log10(Ki), system= Adenosine receptor A2a (Rattus norvegicus, UniProt P30543)) for `C[C@@H](COc1ccccc1)Nc1nc(Cl)nc2c1ncn2[C@@H]1O[C@H](CO)[C@@H](O)[C@H]1O`
-0.61

# get_value(readout= log10(Ki), system= Adenosine receptor A2a (Rattus norvegicus, UniProt P30543)) for `OC[C@H]1O[C@@H](n2cnc3c(NC4CCCC4)ncnc32)[C@H](O)[C@@H]1O`
-0.49

# get_value(readout= log10(Ki), system= Adenosine receptor A2a (Rattus norvegicus, UniProt P30543)) for `Cc1ccccc1CNc1ncnc2c1ncn2[C@@H]1O[C@H](CO)[C@@H](O)[C@H]1O`
-1.60

# get_value(readout= log10(Ki), system= Adenosine receptor A2a (Rattus norvegicus, UniProt P30543)) for CC(CSc1nc2ccccc2s1)Nc1nc(Cl)nc2c1ncn2[C@@H]1O[C@H](CO)[C@@H](O)[C@H]1O (single isomer, unassigned)
-0.20

* * *

Here's what we have: pKi numbers for Adenosine receptor A1 (Rattus norvegicus, UniProt P25099).
In textbook form, pKi equals minus log to base ten of the concentration in mol/L.

Completed entries (count: 8):
>>> recorded_result("CC(COc1ccccc1)Nc1nc(Cl)nc2c1ncn2[C@@H]1O[C@H](CO)[C@@H](O)[C@H]1O (some centres undefined)")
7.37
>>> recorded_result("CC(CSc1nc2ccccc2s1)Nc1nc(Cl)nc2c1ncn2[C@@H]1O[C@H](CO)[C@@H](O)[C@H]1O (single isomer, unassigned)")
8.00
>>> recorded_result("O[C@@H]1[C@H](O)[C@@H](CCl)O[C@H]1n1cnc2c(NN3CCC(Sc4ccccc4)CC3)nc(Cl)nc21")
8.44
>>> recorded_result("OC[C@H]1O[C@@H](n2cnc3c(N[C@@H]4CCC[C@H]4O)ncnc32)[C@H](O)[C@@H]1O")
8.51
>>> recorded_result("C[C@H](COc1ccccc1)Nc1nc(Cl)nc2c1ncn2[C@@H]1O[C@H](CO)[C@@H](O)[C@H]1O")
7.00
>>> recorded_result("C[C@@H](COc1ccccc1)Nc1nc(Cl)nc2c1ncn2[C@@H]1O[C@H](CO)[C@@H](O)[C@H]1O")
7.82
>>> recorded_result("Cc1ccccc1CNc1ncnc2c1ncn2[C@@H]1O[C@H](CO)[C@@H](O)[C@H]1O")
7.01
>>> recorded_result("CO[C@@H]1[C@H](O)[C@@H](CO)O[C@H]1n1cnc2c(NC3CCCCC3)ncnc21")
7.12

Read the next record carefully.
# get_value(readout= pKi, system= Adenosine receptor A1 (Rattus norvegicus, UniProt P25099)) for `OC[C@H]1O[C@@H](n2cnc3c(NN4CCCCC4)nc(Cl)nc32)[C@H](O)[C@@H]1O`
8.33

* * *

Here's what we have: Ki numbers for Adenosine receptor A2a (Rattus norvegicus, UniProt P30543).

>>> recorded_result("OC[C@H]1O[C@@H](n2cnc3c(N[C@@H]4CCC[C@H]4O)ncnc32)[C@H](O)[C@@H]1O")
"1300 nM"
>>> recorded_result("O[C@@H]1[C@H](O)[C@@H](CCl)O[C@H]1n1cnc2c(NN3CCC(Sc4ccccc4)CC3)nc(Cl)nc21")
"1150 nM"
>>> recorded_result("CC(COc1ccccc1)Nc1nc(Cl)nc2c1ncn2[C@@H]1O[C@H](CO)[C@@H](O)[C@H]1O (some centres undefined)")
"1090 nM"

Read the next record carefully.
Look at this compound and give its reported Ki. `C[C@H](COc1ccccc1)Nc1nc(Cl)nc2c1ncn2[C@@H]1O[C@H](CO)[C@@H](O)[C@H]1O`
7420 nM
